Tested on: Chordin-like protein 2 (CHRDL2)
experimental protocol: CHRDL2 small-molecule binders, primary screen, biochemical, small-molecule microarray, 635 nm fluorescence (AID 1126);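 further: printed compound slides probed with Chrdl2 protein at 4 µg/mL for 1 h at 4 C; score merges 667 nm emission intensity with signal to noise over three replicate slides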
applied conditions: small-molecule microarray binding, fluorescence 635 nm; higher = more signal
experimental readout: composite z-score

Cc1ccc(S[C@]2(C(=O)NCc3ccccc3)CC(=O)N(Cc3ccccc3C(F)(F)F)[C@@H]2c2ccc(CO)cc2I)cc1 : -0.175
Cc1ccc(S(=O)(=O)N2[C@@H](c3ccccc3)C(C(=O)O)=C[C@H]2C(C)(C)C)cc1 : -0.301
C=CCC(OC(C)=O)[C@@H]1[C@@H](N(Cc2ccc(-c3ccccc3)cc2)C(=O)Cc2ccc(OC)cc2)c2cc(OCCCO)ccc2N1C(=O)c1ccc2ccccc2c1 (stereo partly drawn) : -0.225

Tested system Chordin-like protein 2 (CHRDL2); composite z-score recorded for "CC(C)(C)OC(=O)CC[C@]1(C(N)=O)N=C(c2ccc(OCCCO)cc2)O[C@H]1c1ccccc1N=[N+]=[N-]" was -0.416

# composite z-score measured on Chordin-like protein 2 (CHRDL2) for item "COC(=O)[C@@]1(Cc2ccc(F)cc2)[C@H]2c3cc(C(=O)N4CCCC4)n(Cc4ccc(C(F)(F)F)nc4)c3C[C@H]2CN1C(=O)c1ccccc1" = -1.41

Note to self: composite z-score of "Cc1ccc(S[C@]2(C(=O)NC(C)C)CC(=O)N(Cc3ccccc3)[C@@H]2c2ccc(CO)cc2)cc1" with Chordin-like protein 2 (CHRDL2) was -1.31

Readout composite z-score for "CC(C)N1C(=O)[C@@]2(Cc3ccccc31)c1ccccc1C(=O)N(Cc1ccccc1)[C@H]2c1ccc(CO)cc1" , test system Chordin-like protein 2 (CHRDL2), was 0.702

Measured composite z-score (Chordin-like protein 2 (CHRDL2)), entry "C=CCOC(=O)[C@H]1[C@@H]2C(=O)O[C@@H](c3ccccc3)[C@@H](c3ccccc3)N2[C@@H](c2ccc(OCCOC(=O)[C@H]3C[C@H]4C(=O)NCC(=O)N4[C@H]3c3ccc(O)cc3)cc2)[C@]12C(=O)Nc1ccccc12" : 0.815
